- tested-system: BCRP (Homo sapiens)
- protocol-summary: bidirectional transport assay across hCMEC/D3 cell monolayer with or without Ko143
- test-context: human, pH 7.4, with Ko143 1 μM
metric: Papp B→A at 2 h, 40 μM (nm/s)
The reply should be a number in nm/s, with the unit left off.

Incoming: So what does the record say about Papp B→A at 2 h, 40 μM for O=C1NC(=O)C(c2ccccc2)(c2ccccc2)N1 [PHT, phenytoin] ?
Outgoing: 30.7

====

- tested-system: BCRP (Homo sapiens)
- protocol-summary: bidirectional transport assay across hCMEC/D3 cell monolayer with or without Ko143
- test-context: human, pH 7.4, with Ko143 1 μM
metric: Papp A→B at 2 h, 40 μM (×10⁻⁶ cm/s)
Express the result in ×10⁻⁶ cm/s but write the number alone.

Incoming: // query Papp A→B at 2 h, 40 μM value for entry O=C1NC(=O)C(c2ccccc2)(c2ccccc2)N1 [PHT, phenytoin]
Outgoing: 2.71

====

- tested-system: BCRP (Homo sapiens, UniProt Q9UNQ0)
- Sequence (Q9UNQ0 1-655): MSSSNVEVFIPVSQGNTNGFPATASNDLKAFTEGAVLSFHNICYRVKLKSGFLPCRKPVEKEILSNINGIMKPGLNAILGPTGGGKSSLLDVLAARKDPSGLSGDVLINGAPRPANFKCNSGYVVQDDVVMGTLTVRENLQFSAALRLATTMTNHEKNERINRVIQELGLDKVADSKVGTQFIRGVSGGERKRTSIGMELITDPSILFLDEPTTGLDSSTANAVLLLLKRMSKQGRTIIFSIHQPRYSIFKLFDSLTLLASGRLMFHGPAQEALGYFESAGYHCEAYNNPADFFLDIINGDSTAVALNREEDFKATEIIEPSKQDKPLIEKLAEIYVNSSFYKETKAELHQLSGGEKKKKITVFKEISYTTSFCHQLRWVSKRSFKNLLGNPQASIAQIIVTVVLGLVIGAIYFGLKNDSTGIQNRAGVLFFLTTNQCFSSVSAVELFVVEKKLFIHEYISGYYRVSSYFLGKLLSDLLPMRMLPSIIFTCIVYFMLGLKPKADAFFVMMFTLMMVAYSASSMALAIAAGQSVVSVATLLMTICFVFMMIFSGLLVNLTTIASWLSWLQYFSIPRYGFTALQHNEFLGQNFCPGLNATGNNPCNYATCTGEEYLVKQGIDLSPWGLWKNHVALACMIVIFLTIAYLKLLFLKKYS
- protocol-summary: bidirectional transport assay across hCMEC/D3 cell monolayer with or without Ko143
- test-context: human, pH 7.4, Efflux ratio (ER), hCMEC/D3 without inhibitor Ko143, 300 μM; hCMEC/D3 monolayer
metric: efflux ratio at 2 h, 300 µM

Incoming: Value wanted: efflux ratio at 2 h, 300 µM (BCRP (Homo sapiens, UniProt Q9UNQ0)) of entry CCCC(CCC)C(=O)O [VPA, valproic acid]
Outgoing: > 1.5

====

- tested-system: BCRP (Homo sapiens, UniProt Q9UNQ0)
- protocol-summary: bidirectional transport assay across hCMEC/D3 cell monolayer with or without Ko143
- test-context: human, pH 7.4, with Ko143 1 μM
- Protocol: For transport assays, hCMEC/D3 cells were seeded on collagen type I‐coated Transwell inserts (polycarbonate 12‐well, pore size […]) (cat. no. CLS3460; Corning, NY, USA) at 80% confluency and cultured as described in section 2.5. […] Concentrations of ASMs were evaluated by HPLC or LC/MS. […] Fluorescence detection of lucifer yellow (excitation at 430 nm, and emission at 535 nm) was carried out with Infinite 200 PRO NanoQuant (Tecan, Zurich, Switzerland). […]
metric: Papp B→A at 2 h, 300 µM (×10⁻⁶ cm/s)
Quick note: give the figure in ×10⁻⁶ cm/s, leave out the unit.

Incoming: I am curious: what Papp B→A at 2 h, 300 µM value has been reported for CCCC(CCC)C(=O)O [VPA, valproic acid] ?
Outgoing: 0.24
